target: Brd3 (Homo sapiens); test: Concentration-dependent BET degradation, immunoblot, HEK293 cells; assay type: cell-based; design: endogenous in cells; host or cells: HEK293; conditions: HEK293, Brd3, 6 h treatment, 1 nM-10 μM; read-out: Dmax (%) maximum degradation observed
Sequence (Q15059 whole entry): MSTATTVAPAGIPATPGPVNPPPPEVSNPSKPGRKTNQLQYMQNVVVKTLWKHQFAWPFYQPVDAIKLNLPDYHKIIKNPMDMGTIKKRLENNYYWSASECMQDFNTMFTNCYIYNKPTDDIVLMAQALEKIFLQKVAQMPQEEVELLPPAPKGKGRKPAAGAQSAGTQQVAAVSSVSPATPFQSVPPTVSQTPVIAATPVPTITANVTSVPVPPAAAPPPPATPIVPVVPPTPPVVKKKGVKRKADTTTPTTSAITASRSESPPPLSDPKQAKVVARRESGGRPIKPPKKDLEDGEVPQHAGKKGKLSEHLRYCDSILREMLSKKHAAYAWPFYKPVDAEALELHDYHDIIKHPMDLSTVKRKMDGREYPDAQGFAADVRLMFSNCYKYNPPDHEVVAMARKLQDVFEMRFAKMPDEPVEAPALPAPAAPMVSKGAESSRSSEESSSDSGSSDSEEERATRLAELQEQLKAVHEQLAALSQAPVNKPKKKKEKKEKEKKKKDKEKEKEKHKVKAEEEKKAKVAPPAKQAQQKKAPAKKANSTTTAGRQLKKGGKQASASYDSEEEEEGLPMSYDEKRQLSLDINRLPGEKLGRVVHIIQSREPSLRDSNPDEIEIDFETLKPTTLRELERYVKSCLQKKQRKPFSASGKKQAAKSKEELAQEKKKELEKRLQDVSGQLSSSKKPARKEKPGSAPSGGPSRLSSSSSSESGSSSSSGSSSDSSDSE
Recorded Dmax, one value per entry.
REPORTED PROPERTY: Dmax

COMPOUND: CCCC(NC(=O)/C(C#N)=C/c1cccc(Br)n1)c1ccc(OCC=NOCC(=O)NCCOCCOCCOCCOCCOCCNC(=O)c2ccc3c(c2)[C@H](Nc2ccc(Cl)cc2)C[C@H](C)N3C(C)=O)cc1 (some centres unmarked) [Example 05IB3]
ASSAYED SYSTEM: Brd3 (Homo sapiens)
OBSERVED MEASUREMENT: ≥ 71%

COMPOUND: CCCC(NC(=O)C(C#N)Cc1cccc(Br)n1)c1ccc(OCCOCCOCCOCCOCCOCCOCCNC(=O)c2ccc(-c3ccc4c(c3)[C@H](Nc3ccc(Cl)cc3)C[C@H](C)N4C(C)=O)cc2)cc1 (some centres unmarked) [Example 05IB12]
ASSAYED SYSTEM: Brd3 (Homo sapiens)
OBSERVED MEASUREMENT: ≤ 25%

COMPOUND: CCCC(NC(=O)/C=C/c1cccc(Br)n1)c1ccc(OCCOCCOCCOCCOCCOCCOCCNC(=O)c2ccc(-c3ccc4c(c3)[C@H](Nc3ccc(Cl)cc3)C[C@H](C)N4C(C)=O)cc2)cc1 (some centres unmarked) [Example 05IB11]
ASSAYED SYSTEM: Brd3 (Homo sapiens)
OBSERVED MEASUREMENT: ≤ 25%

COMPOUND: CCCC(NC(=O)/C(C#N)=C/c1cccc(Br)n1)c1ccc(OCC=NOCC(=O)NCCOCCOCCOCCNC(=O)c2ccc3c(c2)[C@H](Nc2ccc(Cl)cc2)C[C@H](C)N3C(C)=O)cc1 (some centres unmarked) [Example 05IB2]
ASSAYED SYSTEM: Brd3 (Homo sapiens)
OBSERVED MEASUREMENT: ≥ 71%

COMPOUND: CCCC(NC(=O)/C(C#N)=C/c1nccs1)c1ccc(OCCOCCOCCOCCOCCOCCOCCNC(=O)c2ccc(-c3ccc4c(c3)[C@H](Nc3ccc(Cl)cc3)C[C@H](C)N4C(C)=O)cc2)cc1 (some centres unmarked) [Example 05IB9]
ASSAYED SYSTEM: Brd3 (Homo sapiens)
OBSERVED MEASUREMENT: 51 to 70%

###

target: Brd4 (L) (Homo sapiens, UniProt O60885); construct: endogenous in cells; host or cells: HEK293, HeLa; test: Concentration-dependent BET degradation, immunoblot, HeLa cells; type: cell-based; conditions: 6 h treatment, 1 nM-10 μM, read-out: Dmax (%) maximum degradation observed
REPORTED PROPERTY: Dmax

COMPOUND: CCCC(NC(=O)/C(C#N)=C/c1nccs1)c1ccc(OCCOCCOCCOCCOCCOCCOCCNC(=O)c2ccc(-c3ccc4c(c3)[C@H](Nc3ccc(Cl)cc3)C[C@H](C)N4C(C)=O)cc2)cc1 (some centres unmarked)
ASSAYED SYSTEM: Brd4 (L) (Homo sapiens, UniProt O60885)
OBSERVED MEASUREMENT: ≥ 71%
--
COMPOUND: CCCC(NC(=O)/C(C#N)=C/c1cccc(Br)n1)c1ccc(OCCOCCOCCOCCOCCOCCOCCNC(=O)c2ccc(-c3ccc4c(c3)[C@H](Nc3ccc(Cl)cc3)C[C@H](C)N4C(C)=O)cc2)cc1 (some centres unmarked)
ASSAYED SYSTEM: Brd4 (L) (Homo sapiens, UniProt O60885)
OBSERVED MEASUREMENT: ≥ 71%
--
COMPOUND: CCCC(NC(=O)/C(C#N)=C/c1cccc(Br)n1)c1ccc(OCC=NOCC(=O)NCCOCCOCCOCCNC(=O)c2ccc3c(c2)[C@H](Nc2ccc(Cl)cc2)C[C@H](C)N3C(C)=O)cc1 (some centres unmarked)
ASSAYED SYSTEM: Brd4 (L) (Homo sapiens, UniProt O60885)
OBSERVED MEASUREMENT: ≥ 71%
--
COMPOUND: CCCC(NC(=O)/C(C#N)=C/c1nc(Cl)ccc1Cl)c1ccc(OCCOCCOCCOCCOCCOCCOCCNC(=O)c2ccc(-c3ccc4c(c3)[C@H](Nc3ccc(Cl)cc3)C[C@H](C)N4C(C)=O)cc2)cc1 (some centres unmarked)
ASSAYED SYSTEM: Brd4 (L) (Homo sapiens, UniProt O60885)
OBSERVED MEASUREMENT: 51 to 70%
--
COMPOUND: CCCC(NC(=O)/C(C#N)=C/c1cccc(Br)n1)c1ccc(OCC=NOCC(=O)NCCOCCOCCOCCOCCOCCNC(=O)c2ccc3c(c2)[C@H](Nc2ccc(Cl)cc2)C[C@H](C)N3C(C)=O)cc1 (some centres unmarked)
ASSAYED SYSTEM: Brd4 (L) (Homo sapiens, UniProt O60885)
OBSERVED MEASUREMENT: ≥ 71%

###

Recorded DC50, one value per entry.
target: Brd3 (Homo sapiens); assay: Concentration-dependent BET degradation, immunoblot, HeLa cells; type: cell-based; parameters: endogenous in cells; host or cells: HeLa; conditions: Brd3, 6 h treatment, 1 nM-10 μM

COMPOUND: CCCC(NC(=O)/C(C#N)=C/c1cccc(Br)n1)c1ccc(OCC=NOCC(=O)NCCOCCOCCOCCOCCOCCNC(=O)c2ccc3c(c2)[C@H](Nc2ccc(Cl)cc2)C[C@H](C)N3C(C)=O)cc1 (stereo partly shown)
DC50: 51 to 500 nM
//
COMPOUND: CCCC(NC(=O)/C(C#N)=C/c1cccc(Br)n1)c1ccc(OCC=NOCC(=O)NCCOCCNC(=O)c2ccc3c(c2)[C@H](Nc2ccc(Cl)cc2)C[C@H](C)N3C(C)=O)cc1 (stereo partly shown)
DC50: ≤ 50 nM
//
COMPOUND: CCCC(NC(=O)/C(C#N)=C/c1cccc(Br)n1)c1ccc(OCCOCCOCCOCCOCCOCCOCCNC(=O)c2ccc(-c3ccc4c(c3)[C@H](Nc3ccc(Cl)cc3)C[C@H](C)N4C(C)=O)cc2)cc1 (stereo partly shown)
DC50: ≤ 50 nM
//
COMPOUND: CCCC(NC(=O)/C(C#N)=C/c1nc(Cl)ccc1Cl)c1ccc(OCCOCCOCCOCCOCCOCCOCCNC(=O)c2ccc(-c3ccc4c(c3)[C@H](Nc3ccc(Cl)cc3)C[C@H](C)N4C(C)=O)cc2)cc1 (stereo partly shown)
DC50: 51 to 500 nM
//
COMPOUND: CCCC(NC(=O)/C(C#N)=C/c1nccs1)c1ccc(OCCOCCOCCOCCOCCOCCOCCNC(=O)c2ccc(-c3ccc4c(c3)[C@H](Nc3ccc(Cl)cc3)C[C@H](C)N4C(C)=O)cc2)cc1 (stereo partly shown)
DC50: ≤ 50 nM
//
COMPOUND: CCCC(NC(=O)/C=C/c1cccc(Br)n1)c1ccc(OCCOCCOCCOCCOCCOCCOCCNC(=O)c2ccc(-c3ccc4c(c3)[C@H](Nc3ccc(Cl)cc3)C[C@H](C)N4C(C)=O)cc2)cc1 (stereo partly shown)
DC50: 51 to 500 nM
//
COMPOUND: CCCC(NC(=O)/C(C#N)=C/c1cccc(Br)n1)c1ccc(OCC=NOCC(=O)NCCOCCOCCOCCNC(=O)c2ccc3c(c2)[C@H](Nc2ccc(Cl)cc2)C[C@H](C)N3C(C)=O)cc1 (stereo partly shown)
DC50: 51 to 500 nM

###

molecular target: Brd3 (Homo sapiens); experiment: Time-dependent BET degradation, immunoblot, HEK293 cells; type: cell-based; set-up: endogenous in cells; host or cells: HEK293; conditions: HEK293, Brd3, 1 μM, timecourse 0-8 h
REPORTED PROPERTY: Dmax at 1 µM (%)

MOLECULE: CCCC(NC(=O)/C(C#N)=C/c1nc(Cl)ccc1Cl)c1ccc(OCCOCCOCCOCCOCCOCCOCCNC(=O)c2ccc(-c3ccc4c(c3)[C@H](Nc3ccc(Cl)cc3)C[C@H](C)N4C(C)=O)cc2)cc1 (stereo partly drawn) [Example 05IB10]
REPORTED PROPERTY: Dmax at 1 µM
UNIT TAG: %
OBSERVED MEASUREMENT: 90
//
MOLECULE: CCCC(NC(=O)/C(C#N)=C/c1cccc(Br)n1)c1ccc(OCCOCCOCCOCCOCCOCCOCCNC(=O)c2ccc(-c3ccc4c(c3)[C@H](Nc3ccc(Cl)cc3)C[C@H](C)N4C(C)=O)cc2)cc1 (stereo partly drawn) [Example 05IB6]
REPORTED PROPERTY: Dmax at 1 µM
UNIT TAG: %
OBSERVED MEASUREMENT: 74
//
MOLECULE: CCCC(NC(=O)/C(C#N)=C/c1cccc(Br)n1)c1ccc(OCC=NOCC(=O)NCCOCCOCCOCCOCCOCCNC(=O)c2ccc3c(c2)[C@H](Nc2ccc(Cl)cc2)C[C@H](C)N3C(C)=O)cc1 (stereo partly drawn) [Example 05IB3]
REPORTED PROPERTY: Dmax at 1 µM
UNIT TAG: %
OBSERVED MEASUREMENT: 100
//
MOLECULE: CCCC(NC(=O)/C(C#N)=C/c1cccc(Br)n1)c1ccc(OCC=NOCC(=O)NCCOCCOCCOCCNC(=O)c2ccc3c(c2)[C@H](Nc2ccc(Cl)cc2)C[C@H](C)N3C(C)=O)cc1 (stereo partly drawn) [Example 05IB2]
REPORTED PROPERTY: Dmax at 1 µM
UNIT TAG: %
OBSERVED MEASUREMENT: 100
//
MOLECULE: CCCC(NC(=O)/C(C#N)=C/c1cccc(Br)n1)c1ccc(OCC=NOCC(=O)NCCOCCNC(=O)c2ccc3c(c2)[C@H](Nc2ccc(Cl)cc2)C[C@H](C)N3C(C)=O)cc1 (stereo partly drawn) [Example 05IB1]
REPORTED PROPERTY: Dmax at 1 µM
UNIT TAG: %
OBSERVED MEASUREMENT: 100
//
MOLECULE: CCCC(NC(=O)/C(C#N)=C/c1nccs1)c1ccc(OCCOCCOCCOCCOCCOCCOCCNC(=O)c2ccc(-c3ccc4c(c3)[C@H](Nc3ccc(Cl)cc3)C[C@H](C)N4C(C)=O)cc2)cc1 (stereo partly drawn) [Example 05IB9]
REPORTED PROPERTY: Dmax at 1 µM
UNIT TAG: %
OBSERVED MEASUREMENT: 60
